Recorded measurements of activity change, negative = cytotoxicity, one per entry
Experiment: lymphoblastoid cell cytotoxicity, dose response, cytotoxicity control, plate reader, dry powder, set 2 (AID 624367)
Conditions: Lymphoblastoid cell line (LCL) cytotoxicity, plate reader; at 35 µM (top of the series)
Response body: numeric value in %, unit text excluded.

{"columns": ["Compound", "Reported Value"],
 "data": [
  ["Cc1noc(C)c1S(=O)(=O)Nc1ccc2c(c1)C(=O)N([C@H](C)CO)C[C@H](C)[C@H](CN(C)Cc1ccc(C(F)(F)F)cc1)OCCCC[C@H](C)O2", -5.76],
  ["N#C[C@H]1[C@H](c2ccc(C#Cc3ccccc3F)cc2)[C@@H](CO)N1C(=O)c1cccnc1", 3.23],
  ["O=C(C[C@@H]1C[C@H]2c3cc(NS(=O)(=O)c4ccc(F)cc4)ccc3O[C@H]2[C@@H](CO)O1)NC1CCCCC1", 5.66],
  ["CC(C)NC(=O)N1Cc2cc(C(=O)NC3Cc4ccccc4C3)nc(-c3cccc(-c4cccnc4)c3)c2[C@@H]1CCO", 0.066],
  ["C[C@H](CO)N1C[C@H](C)[C@@H](CN(C)S(=O)(=O)c2cccc(F)c2)Oc2ncc(C#CC3CCCCC3)cc2C1=O", 4.17],
  ["COc1ccccc1CNC(=O)C[C@H]1C[C@@H]2c3cc(NC(=O)CN(C)C)ccc3O[C@@H]2[C@@H](CO)O1", 2.15],
  ["C[C@@H](NC(=O)C[C@@H]1C=C[C@H](NC(=O)Cc2ccccn2)[C@H](CO)O1)c1ccccc1", 6.45],
  ["C[C@@H](NC(=O)C[C@H]1C=C[C@H](NC(=O)Cc2ccccn2)[C@@H](CO)O1)c1ccccc1", -5.21]
]}

INPUT: Name the recorded activity change, negative = cytotoxicity for "C[C@H]1CN([C@@H](C)CO)C(=O)c2cc(C#Cc3ccccc3F)cnc2O[C@@H]1CN(C)C(=O)C1CCCCC1" .
OUTPUT: 8.49

INPUT: What about "O=C(Cc1ccccn1)NCC[C@@H]1CC[C@@H](NC(=O)Nc2ccc(Cl)cc2)[C@H](CO)O1" ?
OUTPUT: -2.4
